# particulars: human gut metagenome, 24 h, 2 µM; also: call rule not given here
observed-property: Bacterial Biotransformation

>>> reported_measurement("CN(C)CCC=C1c2ccccc2C=Cc2ccccc21 [CYCLOBENZAPRINE]")
"Compound metabolized"
>>> reported_measurement("Cc1ccc(S(=O)(=O)NC(=O)NN2CCCCCC2)cc1 [TOLAZAMIDE]")
"Compound NOT metabolized"
>>> reported_measurement("CC(=O)O[C@]1(C(C)=O)CC[C@H]2[C@@H]3C=C(Cl)C4=CC(=O)[C@@H]5C[C@@H]5[C@]4(C)[C@H]3CC[C@@]21C [CYPROTERONE ACETATE]")
"Compound metabolized"
>>> reported_measurement("CN(C)CC(c1ccc(O)cc1)C1(O)CCCCC1.O=C(O)CCC(=O)O (stereo not drawn) [DESVENLAFAXINE SUCCINATE]")
"Compound NOT metabolized"

**Query** Can you share its Bacterial Biotransformation? I mean this compound: OC(CCN1CCCCC1)(c1ccccc1)C1CC2C=CC1C2 (stereo not drawn) [BIPERIDEN]
**Result** Compound NOT metabolized

**Query** Do the same for CCN(CC)CCNC(=O)c1cc(Cl)c(N)cc1OC [METOCLOPRAMIDE] please
**Result** Compound NOT metabolized

**Query** Do the same for O=C1NCC2(CCN(CCc3ccccc3)CC2)O1 [FENSPIRIDE] please
**Result** Compound NOT metabolized

**Query** Do the same for COc1ccccc1N1CCN(CC(O)COc2cccc3ccccc23)CC1 (stereo not drawn) [NAFTOPIDIL] please
**Result** Compound NOT metabolized

**Query** Do the same for Cc1nc2n(c(=O)c1CCN1CCC(c3noc4cc(F)ccc34)CC1)CCCC2O (stereo not drawn) [PALIPERIDONE] please
**Result** Compound metabolized

**Query** Do the same for O=C(Nc1ccccc1)OCC(CN1CCCCC1)OC(=O)Nc1ccccc1 (stereo not drawn) [DIPERODON] please
**Result** Compound NOT metabolized

**Query** Do the same for CCCc1nn(C)c2c(=O)[nH]c(-c3cc(S(=O)(=O)N4CCN(C)CC4)ccc3OCC)nc12.O=C(O)CC(O)(CC(=O)O)C(=O)O [SILDENAFIL CITRATE] please
**Result** Compound metabolized

**Query** Do the same for CN1C(=O)CC(C)(c2ccccc2)C1=O (stereo not drawn) [METHSUXIMIDE] please
**Result** Compound NOT metabolized

**Query** Do the same for COc1ccc(CCN(C)CCCC(C#N)(c2ccc(OC)c(OC)c2)C(C)C)cc1OC (stereo not drawn) please
**Result** Compound metabolized

**Query** Do the same for OCCN1CCN(CCCN2c3ccccc3Sc3ccc(C(F)(F)F)cc32)CC1 [FLUPHENAZINE] please
**Result** Compound metabolized

**Query** Do the same for CN(C)C(=O)C(CCN1CCC(O)(c2ccc(Cl)cc2)CC1)(c1ccccc1)c1ccccc1 [LOPERAMIDE] please
**Result** Compound metabolized

**Query** Do the same for CN/C(=N/CCSCc1nc[nH]c1C)NC#N [CIMETIDINE] please
**Result** Compound metabolized

**Query** Do the same for CNC(=C[N+](=O)[O-])NCCSCc1ccc(CN(C)C)o1 [RANITIDINE] please
**Result** Compound NOT metabolized

**Query** Do the same for CC(O)(CS(=O)(=O)c1ccc(F)cc1)C(=O)Nc1ccc(C#N)c(C(F)(F)F)c1 (stereo not drawn) [BICALUTAMIDE] please
**Result** Compound NOT metabolized
